target: Homo sapiens ntMGAM (Homo sapiens, UniProt O43451); construct: Homo sapiens ntMGAM; experiment: Inhibition of N-terminal domain of maltase glucoamylase; format: biochemical; settings: GH family 31; tested at 100 μM; read-out: Ki With MbA-GRX
Sequence (O43451 356-737 limits assumed): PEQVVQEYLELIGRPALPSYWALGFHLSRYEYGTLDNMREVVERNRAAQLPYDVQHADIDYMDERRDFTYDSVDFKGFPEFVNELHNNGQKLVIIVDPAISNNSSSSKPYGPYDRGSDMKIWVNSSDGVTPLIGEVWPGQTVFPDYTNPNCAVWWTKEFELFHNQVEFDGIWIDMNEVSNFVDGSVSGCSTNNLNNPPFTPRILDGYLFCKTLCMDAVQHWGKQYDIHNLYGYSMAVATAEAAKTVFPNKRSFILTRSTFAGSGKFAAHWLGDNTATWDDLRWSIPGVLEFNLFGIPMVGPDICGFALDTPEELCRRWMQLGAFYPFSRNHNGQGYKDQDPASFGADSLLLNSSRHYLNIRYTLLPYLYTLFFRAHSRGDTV
pKi: −log10 of the molar value.
Observation Type: pKi

Give its pKi value. Item: CC1O[C@@H](Oc2c(-c3cc(O)c(O)c(O)c3)oc3cc(O)cc(O)c3c2=O)C(O[C@@H]2OC(COC(=O)/C=C/c3ccc(O)c(O)c3)[C@@H](O)[C@@H](O)C2O)[C@@H](O)[C@H]1O (stereo partly shown) < 4.00

---

Target: human pancreatic α-amylase (HPA) (Homo sapiens, UniProt P04746)
Construct: made in house; host or cells: Pichia pastoris strain GM5011
Sequence (P04746 16-511): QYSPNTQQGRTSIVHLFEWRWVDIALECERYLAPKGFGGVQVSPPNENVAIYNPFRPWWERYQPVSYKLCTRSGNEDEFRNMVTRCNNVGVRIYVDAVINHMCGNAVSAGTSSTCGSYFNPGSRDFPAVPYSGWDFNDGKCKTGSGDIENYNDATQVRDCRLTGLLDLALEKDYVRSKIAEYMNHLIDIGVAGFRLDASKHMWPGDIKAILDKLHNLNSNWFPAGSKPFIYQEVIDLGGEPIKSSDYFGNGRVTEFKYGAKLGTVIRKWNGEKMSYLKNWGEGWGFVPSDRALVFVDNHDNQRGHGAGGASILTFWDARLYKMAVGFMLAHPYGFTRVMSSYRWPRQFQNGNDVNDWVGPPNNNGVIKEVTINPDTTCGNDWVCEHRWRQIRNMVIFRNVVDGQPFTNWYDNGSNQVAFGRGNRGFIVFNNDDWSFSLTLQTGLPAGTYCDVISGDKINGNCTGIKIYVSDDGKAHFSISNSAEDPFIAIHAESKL
Experiment: Inhibition of wild-type human pancreatic α-amylase (HPA), kinetic KI determination with CNP-G3
Type: biochemical
Settings: Table 6, GH family 13; mean ± s.d.; read-out: Ki (nM), HPA
Observation Type: Ki (nM)
Kindly provide the numeric value in nM only, without the unit symbol.

I am curious: what Ki value has been reported for CC1O[C@@H](Oc2c(-c3cc(O)c(O)c(O)c3)oc3cc(O)cc(O)c3c2=O)C(O[C@@H]2OC(COC(=O)/C=C/c3ccc(O)c(O)c3)[C@@H](O)[C@@H](O)C2O)[C@@H](O)[C@H]1O (stereo partly shown) [MbA-1GRX] ? 93.3
